Experiment: RPL19A-GFP modulators, yeast TOR pathway, confirmation, cell-based, S. cerevisiae, flow cytometry, cherry picks, mother/daughter gates (AID 2270)
Conditions: S. cerevisiae RPL19A-GFP strain, 3 h, at 10 µM, stronger effect = lower value, 100 = same GFP as DMSO wells
Active and inactive are the calls of the source.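 How the source made its calls: active means GFP response below 50% of the DMSO control; inconclusive means fewer than 70 events counted for a yeast strain; inactive means the rest.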
observation type: GFP response vs DMSO

Please review the following examples before continuing.
| molecule | GFP response vs DMSO |
| --- | --- |
| CC(C)(C)C(=O)C(Cl)C(=O)Nc1ccccc1 (stereo not drawn) | 79.7% (inactive) |
| CCC(C)(C)n1nnnc1C(c1ccc(O)c(OC)c1)N1CCc2ccccc2C1 (stereo not drawn) | 100% (inactive) |
| CC(Oc1ccc(Br)cc1)C(=O)Nc1nc(-c2ccccn2)cs1 (stereo not drawn) | 104% (inactive) |
| Oc1c(C(Nc2nc3ccccc3s2)c2ccco2)ccc2cccnc12 (stereo not drawn) | 98.9% (inactive) |
| S=C(Sc1ccc(Cl)cc1)Sc1ccc(Cl)cc1 | 97.6% (inactive) |
| O=C1c2ccsc2SCCN1Cc1ccc(Cl)cc1Cl | 96% (inactive) |

GET /values?readout=GFP response vs DMSO&item= CS/C(N)=N/N=C/c1ccc2c(c1)OCO2
97.8% (inactive)

GET /values?readout=GFP response vs DMSO&item= CCN(CC(O)Cn1c2ccccc2c2ccccc21)S(=O)(=O)c1ccc(F)cc1 (stereo not drawn)
96% (inactive)
